target: UniProtKB Q9BZL6; test: KINOMEscan competition binding; details: compound 10.0 µM
Sequence (Q9BZL6 whole entry, looked up): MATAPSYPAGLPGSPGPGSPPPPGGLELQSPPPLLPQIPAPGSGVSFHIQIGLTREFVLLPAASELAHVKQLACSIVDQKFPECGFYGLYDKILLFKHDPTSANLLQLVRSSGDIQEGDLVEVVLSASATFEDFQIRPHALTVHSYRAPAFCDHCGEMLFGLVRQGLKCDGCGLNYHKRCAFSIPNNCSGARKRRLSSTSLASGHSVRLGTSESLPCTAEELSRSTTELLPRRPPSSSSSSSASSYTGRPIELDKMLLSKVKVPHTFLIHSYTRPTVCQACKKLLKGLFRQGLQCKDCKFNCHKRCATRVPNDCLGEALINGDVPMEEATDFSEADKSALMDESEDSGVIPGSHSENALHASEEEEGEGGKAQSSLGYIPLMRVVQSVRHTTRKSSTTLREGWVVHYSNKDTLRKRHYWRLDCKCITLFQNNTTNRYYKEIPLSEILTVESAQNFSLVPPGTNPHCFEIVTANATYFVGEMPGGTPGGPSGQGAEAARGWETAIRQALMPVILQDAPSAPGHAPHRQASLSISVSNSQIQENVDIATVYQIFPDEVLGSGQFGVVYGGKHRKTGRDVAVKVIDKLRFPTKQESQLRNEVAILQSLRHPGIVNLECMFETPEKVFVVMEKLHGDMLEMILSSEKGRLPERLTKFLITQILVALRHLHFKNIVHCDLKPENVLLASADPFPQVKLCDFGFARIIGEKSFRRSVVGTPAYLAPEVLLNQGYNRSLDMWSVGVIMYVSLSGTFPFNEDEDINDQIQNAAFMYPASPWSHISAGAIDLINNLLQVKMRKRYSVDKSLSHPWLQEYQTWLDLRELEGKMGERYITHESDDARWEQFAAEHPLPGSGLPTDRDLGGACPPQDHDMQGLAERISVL
measured.property: kinase still bound, per cent of control (%)

>>> number("CN(C)C/C=C/C(=O)Nc1cccc(Nc2ncc3c(n2)N(C)c2ccccc2C(=O)N3C)c1")
36
>>> number("CCOc1cc2ncc(C#N)c(Nc3ccc(OCc4ccccn4)c(Cl)c3)c2cc1NC(=O)/C=C/CN(C)C")
50
>>> number("COc1cc(C(=O)NC2CCN(C)CC2)ccc1Nc1ncc2c(n1)N(C1CCCC1)CCC(=O)N2C(C)C")
100
>>> number("C=CC(=O)Nc1cc(NC(=O)c2ccc(C)c(NC(=O)c3ccno3)c2)cc(C(F)(F)F)c1")
100
>>> number("COc1cc(N2CCN(C)CC2)ccc1Nc1nc(N)c(C(=O)c2c(Cl)cccc2Cl)s1")
78
>>> number("CC[C@@H]1C(=O)N(C)c2cnc(Nc3ccc(C(=O)NC4CCN(C)CC4)cc3OC)nc2N1C1CCCC1")
16
>>> number("C=CC(=O)Nc1cccc(Nc2nc(N[C@H]3CC[C@H](N(C)C)CC3)nc3c2ncn3C(C)C)c1")
100
>>> number("N#Cc1c(NC(=O)c2cccc3ccccc23)sc2c1CCCC2")
88
>>> number("O=C(NC1CC1)c1cccc(-c2ccc3c(NC(=O)C4CC4)n[nH]c3c2)c1")
100

====

molecular target: MYLK2 (human) (UniProt Q9H1R3); experiment: KINOMEscan competition binding; conditions: compound 10.0 µM
Sequence (Q9H1R3 whole entry, looked up): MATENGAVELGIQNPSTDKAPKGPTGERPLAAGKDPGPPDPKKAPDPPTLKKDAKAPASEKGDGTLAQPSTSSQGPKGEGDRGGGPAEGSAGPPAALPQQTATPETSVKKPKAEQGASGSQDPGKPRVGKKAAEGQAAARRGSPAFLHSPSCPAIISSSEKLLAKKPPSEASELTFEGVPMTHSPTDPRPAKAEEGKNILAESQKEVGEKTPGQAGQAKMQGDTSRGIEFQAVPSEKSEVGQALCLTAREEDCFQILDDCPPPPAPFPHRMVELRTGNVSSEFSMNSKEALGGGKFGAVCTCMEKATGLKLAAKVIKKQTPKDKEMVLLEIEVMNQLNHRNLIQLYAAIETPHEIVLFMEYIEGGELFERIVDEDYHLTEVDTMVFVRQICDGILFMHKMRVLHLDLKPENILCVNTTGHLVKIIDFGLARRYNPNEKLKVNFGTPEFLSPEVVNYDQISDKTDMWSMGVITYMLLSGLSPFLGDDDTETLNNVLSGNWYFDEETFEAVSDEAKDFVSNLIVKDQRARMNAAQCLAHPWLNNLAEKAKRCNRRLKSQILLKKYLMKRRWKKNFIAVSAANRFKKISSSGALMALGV
// reported kinase still bound, per cent of control per item
measured.property: kinase still bound, per cent of control (%)

>>> number("O=C(NOC[C@H](O)CO)c1ccc(F)c(F)c1Nc1ccc(I)cc1F")
100
>>> number("Cn1c(=O)n(-c2ccc(C(C)(C)C#N)cc2)c2c3cc(-c4cnc5ccccc5c4)ccc3ncc21")
100
>>> number("CCN1CCN(Cc2ccc(Nc3ncc4c(n3)N(C)c3ccccc3C(=O)N4C)cc2C(F)(F)F)CC1")
88
>>> number("Cc1ccc(NC(=O)c2cccc(C(C)(C)C#N)c2)cc1Nc1ccc2ncn(C)c(=O)c2c1")
100
>>> number("Cc1ccc(C(=O)Nc2cccc(C(F)(F)F)c2)cc1Nc1cncc(C(N)=O)c1")
100
>>> number("CCC(=O)N1CCN(c2ccc(-n3c(=O)ccc4cnc5ccc(-c6cnc7ccccc7c6)cc5c43)cc2C(F)(F)F)CC1")
40

====

Overview of recorded kinase still bound, per cent of control for various compounds
biological target: INSRR (human); assay: KINOMEscan competition binding; settings: compound 10.0 µM
measured.property: kinase still bound, per cent of control (%)

>>> number("O=C(O)c1ccc(Nc2ncc3c(n2)-c2ccc(Cl)cc2C(c2c(F)cccc2F)=NC3)cc1")
100
>>> number("CCC(=O)N1CCN(c2ccc(-n3c(=O)ccc4cnc5ccc(-c6cnc7ccccc7c6)cc5c43)cc2C(F)(F)F)CC1")
100
>>> number("O=C1Nc2ccc(I)cc2/C1=C/c1cc(Br)c(O)c(Br)c1")
81
>>> number("O=C(NC1CC1)c1cccc(-c2ccc3c(NC(=O)C4CC4)n[nH]c3c2)c1")
95
>>> number("CCOc1cc2ncc(C#N)c(Nc3ccc(OCc4ccccn4)c(Cl)c3)c2cc1NC(=O)/C=C/CN(C)C")
94
>>> number("Cn1c(=O)n(-c2ccc(C(C)(C)C#N)cc2)c2c3cc(-c4cnc5ccccc5c4)ccc3ncc21")
100
>>> number("C=CC(=O)Nc1cc(NC(=O)c2ccc(C)c(NC(=O)c3ccno3)c2)cc(C(F)(F)F)c1")
100
>>> number("Cc1ccc(NC(=O)c2cccc(C(C)(C)C#N)c2)cc1Nc1ccc2ncn(C)c(=O)c2c1")
100
>>> number("COc1cc(C(=O)NC2CCN(C)CC2)ccc1Nc1ncc2c(n1)N(C1CCCC1)CCC(=O)N2C(C)C")
100
